B1: tRNA (parent)
chain: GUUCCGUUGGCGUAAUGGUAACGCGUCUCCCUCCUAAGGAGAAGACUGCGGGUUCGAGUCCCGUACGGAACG

variants of: B1; assay: yeast fitness relative to wild type (ratio to wild type); higher = fitter; tRNA-Arg(CCU), competitive growth, 37 C, YPD
Variants at the floor of the assay were thinned out.
Rule: yeast fitness of 0.6 or more gives Satisfied; anything lower gives Not satisfied.

orderedResidues: GUUCGGUUGGCGUAAUGGUAACGCGUCUCACUCCUAAGGGGAAGACUGCGGGUUCGAGUCCCGUACGGAUCG [C5G C30A A40G A70U]
labelValue: Not satisfied

orderedResidues: GUUCCGUUGGCGUAAAAGUAACGCGUCUCCCUCCUAAGGAGAAGACUGCGGGUUCGAGUCCCGUAGGGAUCG [U16A G17A C66G A70U]
labelValue: Satisfied

orderedResidues: GUUCCGUUGGCGUAAUGGUAACGCGUCUCUCUCCUAAGGCGAAGACUGGGGGUUCGAGUCCCGUACGGAACG [C30U A40C C49G]
labelValue: Not satisfied

orderedResidues: GUUCCGUUGGCGUAAUGGGAACGCGUCUCCCUCCUAAGGAGAAGACAGCGGGUUCGAGUCCCGUACGGAACG [U19G U47A]
labelValue: Satisfied

orderedResidues: GUUCCGUUGGAGUAAUGGUAACGCGUCUCCCUCCGAAGGAGAAGACUGCGGGUUCGAGUCCCGUACGGAACG [C11A U35G]
labelValue: Not satisfied

orderedResidues: GUUCCGUUGGCGUAAUGGUAACGCGUCCCCCUCCUAAGGAGAAGAAUGCGGGUUCGAGUCCCGUACGGAACG [U28C C46A]
labelValue: Satisfied

orderedResidues: GCUCCGUUGGCGUAAUGGUAACGGGUCUUCCUCCUAAGGAGAAGACUGCGGGUUCGAGUCCGGUAAGGAACG [U2C C24G C29U C62G C66A]
labelValue: Not satisfied

orderedResidues: GUUCCGUUGGAGUAAUGGUAACGCGUCUCCCUCCUAAGGAGGUGAUUGCGGGUUCGAGUCCCGUACGGAACG [C11A A42G A43U C46U]
labelValue: Not satisfied

orderedResidues: GUUCCGUUGGCGUAAUGGUAACGCGUCUGCCUCCUAAGGAGAAGACUGCGGGUUCGAGUCCCGUUCGGAGCG [C29G A65U A70G]
labelValue: Not satisfied

orderedResidues: GUUCCGUUGGCGUAAUGGUAACGCGUCUCCAUCCUAAGGAGAAGACUGCGGGUUCGGGUCCCGUACGGAACG [C31A A57G]
labelValue: Satisfied
